The reported numbers originate from patent US20260248892A1.

Biological target: Rat IR (rat, UniProt P15127 27-1383)
Sequence (P15127 27-1383): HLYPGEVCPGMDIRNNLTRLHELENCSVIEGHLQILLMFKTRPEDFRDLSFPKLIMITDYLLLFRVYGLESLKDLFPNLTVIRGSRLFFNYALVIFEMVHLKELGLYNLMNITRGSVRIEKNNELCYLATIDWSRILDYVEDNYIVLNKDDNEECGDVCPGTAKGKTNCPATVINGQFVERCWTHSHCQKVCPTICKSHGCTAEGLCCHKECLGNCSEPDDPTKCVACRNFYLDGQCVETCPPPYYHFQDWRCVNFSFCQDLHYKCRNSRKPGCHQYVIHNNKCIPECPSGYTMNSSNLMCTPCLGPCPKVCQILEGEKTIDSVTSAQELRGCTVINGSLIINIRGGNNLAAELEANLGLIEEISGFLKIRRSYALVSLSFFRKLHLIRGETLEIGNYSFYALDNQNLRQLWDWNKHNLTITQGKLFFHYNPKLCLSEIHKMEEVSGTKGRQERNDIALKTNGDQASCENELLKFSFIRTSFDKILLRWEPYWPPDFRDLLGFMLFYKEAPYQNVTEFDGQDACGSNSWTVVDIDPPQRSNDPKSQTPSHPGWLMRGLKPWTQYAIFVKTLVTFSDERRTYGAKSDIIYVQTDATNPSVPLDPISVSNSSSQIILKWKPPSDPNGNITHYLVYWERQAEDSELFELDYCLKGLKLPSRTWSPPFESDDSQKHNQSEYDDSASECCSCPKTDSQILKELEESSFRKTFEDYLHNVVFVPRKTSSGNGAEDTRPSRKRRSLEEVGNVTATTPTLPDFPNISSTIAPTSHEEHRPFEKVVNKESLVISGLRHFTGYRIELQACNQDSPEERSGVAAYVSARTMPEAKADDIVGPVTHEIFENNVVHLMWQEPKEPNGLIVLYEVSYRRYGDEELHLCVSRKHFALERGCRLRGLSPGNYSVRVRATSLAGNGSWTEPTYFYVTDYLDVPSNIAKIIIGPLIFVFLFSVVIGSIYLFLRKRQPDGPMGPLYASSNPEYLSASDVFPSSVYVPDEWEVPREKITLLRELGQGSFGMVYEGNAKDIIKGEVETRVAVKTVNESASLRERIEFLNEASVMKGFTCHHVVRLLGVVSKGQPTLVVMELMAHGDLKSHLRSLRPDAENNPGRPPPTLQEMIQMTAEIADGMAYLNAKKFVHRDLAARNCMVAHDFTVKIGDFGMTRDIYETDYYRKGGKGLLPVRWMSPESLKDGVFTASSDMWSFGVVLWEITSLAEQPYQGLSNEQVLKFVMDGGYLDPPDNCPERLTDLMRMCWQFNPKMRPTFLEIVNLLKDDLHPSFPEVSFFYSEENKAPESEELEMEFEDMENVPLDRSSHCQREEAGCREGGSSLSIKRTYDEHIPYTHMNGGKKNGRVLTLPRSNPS
Test: cell-based or functional assay
Endpoint label: Rat IR phosphorylation [EC50 nM] mean (nM)
Supply the numeric figure in nM, leaving out any unit text.

Example binders with recorded Rat IR phosphorylation [EC50 nM] mean:
Binder	Rat IR phosphorylation [EC50 nM] mean (nM)
scl-Fc fusion protein INS022 (Fc fusion) FVNQHLCGSHLVEALELVCGERGFHYTPKTGSYPGGVGIVEQCCTSICSLSQLENYCGGEAEDLQVGQVELGGGPGAGSLQPEGSLQGGPSVFLFPPKPKDTLMISRTPEVTCVVVDVSHEDPEVKFNWYVDGVEVHNAKTKPREEQYNSTYRVVSVLTVLHQDWLNGKEYKCKVSNKALPAPIEKTISKAKGQPREPQVYTLPPSRDELTKNQVSLTCLVKGFYPSDIAVEWESNGQPENNYKTTPPVLDSDGSFFLYSKLTVDKSRWQQGNVFSCSVMHEALHNHYTQKSLSLSPGGGGGSAESKYGPPCPPCPA	64.9
scl-Fc fusion protein INS013 (Fc fusion) FVNQHLCGSHLVEALHLVCGERGFHYTPKTGSYPGGVGIVEQCCTSICSLSQLEDYCGGEAEDLQVGQVELGGGPGAGSLQPEGSLQGGPSVFLFPPKPKDTLMISRTPEVTCVVVDVSHEDPEVKFNWYVDGVEVHNAKTKPREEQYNSTYRVVSVLTVLHQDWLNGKEYKCKVSNKALPAPIEKTISKAKGQPREPQVYTLPPSRDELTKNQVSLTCLVKGFYPSDIAVEWESNGQPENNYKTTPPVLDSDGSFFLYSKLTVDKSRWQQGNVFSCSVMHEALHNHYTQKSLSLSPGGGGGSAESKYGPPCPPCPA	23.6
scl-Fc fusion protein INS014 (Fc fusion) SFVNQHLCGSHLVEALHLVCGERGFHYTPKTGSYPGGVGIVEQCCTSICSLSQLEDYCGGEAEDLQVGQVELGGGPGAGSLQPEGSLQGGPSVFLFPPKPKDTLMISRTPEVTCVVVDVSHEDPEVKFNWYVDGVEVHNAKTKPREEQYNSTYRVVSVLTVLHQDWLNGKEYKCKVSNKALPAPIEKTISKAKGQPREPQVYTLPPSRDELTKNQVSLTCLVKGFYPSDIAVEWESNGQPENNYKTTPPVLDSDGSFFLYSKLTVDKSRWQQGNVFSCSVMHEALHNHYTQKSLSLSPGGGGGSAESKYGPPCPPCPA	92.8

Proceeding to the next binder to report its Rat IR phosphorylation [EC50 nM] mean.
Ask: Report measured Rat IR phosphorylation [EC50 nM] mean; entry is scl-Fc fusion protein INS020 (Fc fusion) FVNQHLCGSHLVEALELVCGERGFHYTPKTEEYPGDVGIVEQCCTSICSLSQLENYCGGEAEDLQVGQVELGGGPGAGSLQPEGSLQGGPSVFLFPPKPKDTLMISRTPEVTCVVVDVSHEDPEVKFNWYVDGVEVHNAKTKPREEQYNSTYRVVSVLTVLHQDWLNGKEYKCKVSNKALPAPIEKTISKAKGQPREPQVYTLPPSRDELTKNQVSLTCLVKGFYPSDIAVEWESNGQPENNYKTTPPVLDSDGSFFLYSKLTVDKSRWQQGNVFSCSVMHEALHNHYTQKSLSLSPGGGGGSAESKYGPPCPPCPA
Reply: 247
